Source listed as paper PMC12137140.

molecular target: T1, Bio-His-FIKK13 (P. falciparum, biotin (site not stated)); test: SPR; Bio-His-FIKK13 immobilised (Biotin CAPture kit, about 1,400 RU), Biacore S200, single-cycle kinetics, 100 s contact time, 25 °C, 50 mM Tris pH 7.5, 250 mM NaCl, 2 mM DTT, 10 mM MgCl2, 1.5 µM ADP, 0.02% Tween, 0.1% DMSO; conditions: both partners purified
T1 construct: also called His-bio-FIKK13; biotinylated FIKK13

>  <binder>
YPLRFLSKYHCG (D-tyrosine at the N-terminus; cyclised via a thioether bond between the N-terminus and the cysteine side chain; C-terminal amide) [FIKK13_4]

>  <Kd>
17 nM

$$$$
